molecular target: human orexin-1 receptor (Homo sapiens (Human), UniProt O43613); assay: In vitro assay: intracellular calcium measurements (FLIPR), antagonistic activity; details: CHO cells expressing human orexin-1 receptor, orexin-A agonist, geometric mean, read-out: IC50 Ox1
Sequence (O43613 whole entry): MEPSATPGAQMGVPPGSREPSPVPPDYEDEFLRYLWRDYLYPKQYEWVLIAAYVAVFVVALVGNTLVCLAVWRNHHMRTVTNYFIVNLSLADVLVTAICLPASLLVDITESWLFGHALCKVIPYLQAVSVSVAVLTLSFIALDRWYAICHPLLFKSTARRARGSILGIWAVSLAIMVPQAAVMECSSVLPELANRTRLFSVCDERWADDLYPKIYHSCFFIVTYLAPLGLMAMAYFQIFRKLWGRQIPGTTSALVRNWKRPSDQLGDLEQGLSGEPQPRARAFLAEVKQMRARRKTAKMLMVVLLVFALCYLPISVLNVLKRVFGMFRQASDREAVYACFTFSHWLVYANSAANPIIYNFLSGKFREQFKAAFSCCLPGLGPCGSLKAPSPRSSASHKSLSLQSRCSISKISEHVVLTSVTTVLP
endpoint name: IC50 (nM)

# annotated cases, reported IC50 shown
Cc1ccc(-n2cccn2)c(C(=O)N2CCC[C@@]2(C)c2nc3cc(C(F)(F)F)c(Cl)cc3[nH]2)n1 ... 7
Cc1nc(C(=O)N2CCC[C@@]2(C)c2nc3c(F)c(F)ccc3[nH]2)c(-c2ccc(Cl)cc2)s1 ... 27

P = COc1ccc(-c2sc(C)nc2C(=O)N2CC[C@H](C)[C@H]2c2nc3c(C)c(Cl)ccc3[nH]2)cn1
Q = CSc1ccc2nc([C@@H]3CCCN3C(=O)c3nc(C)sc3-c3ccc(C)cc3)[nH]c2c1
Of the two listed items, P and Q , which carries the larger IC50 figure? Give the label of your selection. Q
